Listed binders paired with reported relative activity; GIP Receptor
# testTarget: T1, GIP receptor (UniProt P48546 22-466)
# T1 sequence (looked up): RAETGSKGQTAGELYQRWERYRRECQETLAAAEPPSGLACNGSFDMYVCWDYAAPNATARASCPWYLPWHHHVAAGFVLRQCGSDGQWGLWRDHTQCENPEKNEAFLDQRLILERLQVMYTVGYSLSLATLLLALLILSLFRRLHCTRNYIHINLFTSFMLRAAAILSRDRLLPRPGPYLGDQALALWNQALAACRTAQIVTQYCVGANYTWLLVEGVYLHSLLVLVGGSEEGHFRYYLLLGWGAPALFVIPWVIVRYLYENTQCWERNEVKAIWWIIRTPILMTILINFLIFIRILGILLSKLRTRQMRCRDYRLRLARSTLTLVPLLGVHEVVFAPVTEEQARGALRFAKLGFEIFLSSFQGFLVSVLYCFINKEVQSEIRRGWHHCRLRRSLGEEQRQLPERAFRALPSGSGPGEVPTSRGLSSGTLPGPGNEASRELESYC
# test: cell-based or functional assay
Where no end group is shown, it is not given here. [ ]: non-standard residue; d: D form. The star is where a group is joined. PEG 40 kDa = PEG (40 kDa) covalently attached to Cys; Myristoyl = CCCCCCCCCCCCCC(=O)*; Aib = CC(C)(N)C(=O)O
experimentalReadout: relative activity; GIP Receptor (%)

1) Y[Aib]EGTFTSDK(Myristoyl)SIYLDKQAA[Aib]EFVC(PEG 40 kDa)WLLAGGPSSGAPPPS-NH2 [mt-341] :: 27.4
2) YXEGTFTSDYSIYLDKQAAXEFVNWLLAGGPSSGAPPPSKC (AIB at position 20 (Example 25); other non-standard residues as in the sequence listing) [mt-344] :: 48.6
3) Y[Aib]EGTFTSDYSIYLDKQAA[Aib]EFVC(PEG 40 kDa)WLLAGGPSSGAPPPSK(Myristoyl)-NH2 [mt-353] :: 103
4) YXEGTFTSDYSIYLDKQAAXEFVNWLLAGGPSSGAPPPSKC (AIB at position 20 (Example 25); listed among the acylated glucagon peptides in paragraph 284; other non-standard residues as in the sequence listing) [mt-343] :: 63.8
5) HXQGTFTSDYSKYLDEQAAKEFICWLMNGGPSSGAPPPSK (listed among the acylated glucagon peptides in paragraph 284; non-standard residues as in the sequence listing) [mt-345] :: 4.99
